Would you mind telling me the reported Maximum % inhibition of each entry?
Molecular target: T1, Human PCSK9 Alexa Fluor 647 (human, UniProt Q8NBP7 31-692, limits assumed, Alexa Fluor 647 label (site not stated))
T1 construct: Labelled tracer of the TR-FRET assay, 16 nM stock; also called proprotein convertase subtilisin/kexin type 9
T1 sequence (Q8NBP7 31-692 limits assumed): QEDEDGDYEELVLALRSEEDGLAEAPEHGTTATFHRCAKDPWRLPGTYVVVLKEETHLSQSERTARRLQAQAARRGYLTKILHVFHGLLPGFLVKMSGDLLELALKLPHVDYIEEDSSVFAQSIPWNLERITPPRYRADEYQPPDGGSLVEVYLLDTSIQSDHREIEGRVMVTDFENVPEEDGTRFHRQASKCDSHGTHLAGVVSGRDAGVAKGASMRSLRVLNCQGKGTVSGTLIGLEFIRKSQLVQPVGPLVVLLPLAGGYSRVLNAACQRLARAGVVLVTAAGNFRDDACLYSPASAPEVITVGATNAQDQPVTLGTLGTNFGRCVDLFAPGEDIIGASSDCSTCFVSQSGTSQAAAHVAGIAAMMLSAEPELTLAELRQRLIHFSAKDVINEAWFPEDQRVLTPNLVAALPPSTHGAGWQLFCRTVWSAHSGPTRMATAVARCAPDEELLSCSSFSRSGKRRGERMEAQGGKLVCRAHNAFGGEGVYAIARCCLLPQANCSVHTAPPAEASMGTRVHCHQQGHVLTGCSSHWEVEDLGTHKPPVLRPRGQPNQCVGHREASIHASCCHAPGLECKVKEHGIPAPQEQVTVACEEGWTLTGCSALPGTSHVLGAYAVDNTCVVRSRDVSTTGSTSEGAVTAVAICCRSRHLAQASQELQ
Assay: TR-FRET competition: PCSK9-Alexa Fluor 647 vs LDLR ECD-Eu kryptate
Method: A Proxi plate-low volume assay plate was used for the assay. […] Following a 30 minute incubation, 5 uL of 4 nM Human LDLR extracellular domain-Europium Kryptate was added and the mixture was incubated for an additional 2 hours. The TR-FRET signal was measured on an EnVision or PheraStar instrument with a 60 μs delay, 330 nm excitation and 665 nm emission (FRET), and 330 nm excitation and 615 nm (Europium). The FRET ratio (FRET/Europium) was used for calculations.
Bridge positions count the residues as written; N and C are the ends. Square brackets hold non-standard residues; d marks the D form. Phe(3,4-Cl2) = N[C@@H](Cc1ccc(Cl)c(Cl)c1)C(=O)O; Bip = N[C@@H](Cc1ccc(-c2ccccc2)cc1)C(=O)O; NMeA = CN[C@@H](C)C(=O)O

Consider the binder {CH2CO}-FVPTT[Bip][NMeA][Bip][NMeA]DRPCG-NH2 (thioether N-13; SMILES CC(C)[C@@H]1NC(=O)[C@H](Cc2ccccc2)NC(=O)CSC[C@@H](C(=O)NCC(N)=O)NC(=O)[C@@H]2CCCN2C(=O)[C@H](CCCNC(=N)N)NC(=O)[C@H](CC(=O)O)NC(=O)[C@H](C)N(C)C(=O)[C@H](Cc2ccc(-c3ccccc3)cc2)NC(=O)[C@H](C)N(C)C(=O)[C@H](Cc2ccc(-c3ccccc3)cc2)NC(=O)[C@H]([C@@H](C)O)NC(=O)[C@H]([C@@H](C)O)NC(=O)[C@@H]2CCCN2C1=O, also called 1-19; Ex. No. 1-19) [Ac*-F-V-P-T-T-B-(N-Me)A-B-(N-Me)A-D-R-P-C*-G-NH2] and give its measured Maximum % inhibition.
38%

Would you kindly repeat that for {CH2CO}-FVSTT[Bip][NMeA][Phe(3,4-Cl2)][NMeA]DRPCG-NH2 (thioether N-13; SMILES CC(C)[C@@H]1NC(=O)[C@H](Cc2ccccc2)NC(=O)CSC[C@@H](C(=O)NCC(N)=O)NC(=O)[C@@H]2CCCN2C(=O)[C@H](CCCNC(=N)N)NC(=O)[C@H](CC(=O)O)NC(=O)[C@H](C)N(C)C(=O)[C@H](Cc2ccc(Cl)c(Cl)c2)NC(=O)[C@H](C)N(C)C(=O)[C@H](Cc2ccc(-c3ccccc3)cc2)NC(=O)[C@H]([C@@H](C)O)NC(=O)[C@H]([C@@H](C)O)NC(=O)[C@H](CO)NC1=O, also called 1-14; Ex. No. 1-14) [Ac*-F-V-S-T-T-B-(N-Me)A-(3,4-diCl)F-(N-Me)A-D-R-P-C*-G-NH2] ?
49%
